Hello, the source for this data is the supplement of paper PMC6757056, in case you need it.

B1: library; a variant is named by its letters at N, in order (parent)
chain: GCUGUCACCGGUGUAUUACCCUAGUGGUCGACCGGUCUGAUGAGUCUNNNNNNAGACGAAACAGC

- Variants of: B1
- assay.explanation: normalized RNA/DNA level without ligand (relative to sTRSVctl = 100) (log10 (% of sTRSVctl)); ligand: hypoxanthine (xanthine aptamer); higher = less ribozyme self-cleavage, higher mRNA level
- condition.context: HEK293T, reporter: mCherry (pCS4076), ligand present: no
endpoint.label: normalized RNA/DNA level without ligand (log10)
Just the number, please, no unit attached.

Examples with their reported normalized RNA/DNA level without ligand (log10) follow.
CGCUAA = 1.71
AGGACG = 1.37
GGCACG = 1.66

Inquiry: Suppose we examine the variant GCAGUU ; what normalized RNA/DNA level without ligand (log10) value has been reported?
Reply text: 1.85

Inquiry: // lookup normalized RNA/DNA level without ligand (log10) for GGUAUG
Reply text: 1.32

Inquiry: State the recorded normalized RNA/DNA level without ligand (log10) for this entry: GAAGCU
Reply text: 1.84

Inquiry: # lookup: normalized RNA/DNA level without ligand (log10) of AUCUGU
Reply text: 1.79

Inquiry: # input variant: AGUAAG ; wanted: its normalized RNA/DNA level without ligand (log10)
Reply text: 1.39

Inquiry: State the recorded normalized RNA/DNA level without ligand (log10) for this entry: ACGACC
Reply text: 1.85
